Origin of values: PubChem BioAssay (NCI)

System: HOP-92 NSCLC
Test: NCI tumour cell line growth inhibition, 48 h

compound: CN(C)C(Cc1cnc[nH]1)C(=O)N1CCCC1C(N)=O (stereo not drawn)
TGI: > 100 µM
--
compound: CCC1=NC(N/N=C/c2ccco2)=N/C1=C\c1ccccc1O
TGI: > 100 µM
--
compound: COc1cc(-c2cn(S(=O)(=O)c3ccc(C)cc3)c3ccccc23)nc(-c2cn(S(=O)(=O)c3ccc(C)cc3)c3ccccc23)n1
TGI: > 60.9 µM
--
compound: O=S(=O)(O)c1c(Cl)cc(O)c2ncccc12
TGI: > 100 µM
--
compound: NC1=NC(=O)/C(=C/c2ccccc2[N+](=O)[O-])C(N)=N1
TGI: > 100 µM
--
compound: CC(=O)Nc1ccc(Nc2cc(=O)[nH]c(=O)[nH]2)cc1
TGI: > 100 µM
--
compound: CCc1nc(N)nc(N)c1-c1ccc(NCCN)c([N+](=O)[O-])c1
TGI: > 100 µM
--
compound: N#Cc1c(N2CCCC2)nsc1NCc1ccccc1
TGI: > 100 µM
--
compound: ClCCCN(CCCCl)c1ccc(C=Nc2cccc(Cl)c2)cc1
TGI: > 100 µM
--
compound: NCCNc1c2c(c(NCCN)c3c(CO)c[nH]c13)C(=O)c1ccccc1C2=O
TGI: > 100 µM
--
compound: COc1ccccc1/C=C/C1=NN(c2cccc(S(=O)(=O)O)c2)C2(C1)SCC(=O)N2c1nc2ccccc2s1 (stereo not drawn)
TGI: > 100 µM
--
compound: CN(C)c1ccc2c(=O)c3ccccc3oc2n1
TGI: > 100 µM
--
compound: Cc1cc2nc(C(C)C(=O)c3ccc(Cl)cc3)c(=O)[nH]c2cc1C (stereo not drawn)
TGI: > 100 µM
--
compound: O=C1OC[C@@H]2[C@@H](O)CCCCCN12
TGI: > 100 µM
--
compound: F
TGI: > 6870 µM
--
compound: CCOC(=O)CN1C(=O)c2c(c(C)n(-c3ccccc3)c2C)C1=O
TGI: > 100 µM
--
compound: N/C(=N\N=C/c1ccccc1O)NO
TGI: > 67.6 µM
--
compound: CCCCCCCC1C(C)c2c([nH]c3ccccc23)C2C(=O)N(c3ccc(OC)cc3)C(=O)C21 (stereo not drawn)
TGI: > 10 µM
--
compound: ON/N=C/c1cc2c(cc1Br)OCO2
TGI: > 386 µM
--
compound: COc1cc2c(cc1OC)-c1cc3ccccc3c[n+]1CC2
TGI: > 100 µM
--
compound: CC(NS(=O)(=O)c1ccc([N+](=O)[O-])cc1)C(=O)O (stereo not drawn)
TGI: > 100 µM
--
compound: COc1cc(C(=O)/C=C/c2c(C)n([O-])c3ccc(C)cc3[n+]2=O)cc(OC)c1OC
TGI: > 27.1 µM
--
compound: O=C(O)CCNc1ccccc1C(=O)O
TGI: > 100 µM
